Origin of values: paper PMC9926234

target.system: SARS-CoV-2 NSP3 Mac1 (Severe acute respiratory syndrome coronavirus 2, UniProt P0DTD1)
Assay type: binding
run.conditions: PanDDA event map, 1 minus background density correction; crystal soaking of Mac1
quantity.name: 1-BDC (PanDDA)

Memo: Cn1ncc2c(=O)[nH]c(CCC(=O)N3CC=C(C(=O)O)C3)nc21 , reported 1-BDC (PanDDA): 0.17

Memo: O=C1OCCN1C1CCN(c2ncnc3[nH]c4cc(F)ccc4c23)C1 (centres unmarked) , reported 1-BDC (PanDDA): 0.06

Memo: O=C(O)Cc1ccc(CNC(=O)c2ccnc3ccsc23)cc1 , reported 1-BDC (PanDDA): 0.12

Memo: CS(=O)(=O)NC(=O)C1(F)CN(c2ncnc3[nH]c4cc(F)ccc4c23)CC12CCC2 (centres unmarked) , reported 1-BDC (PanDDA): 0.18

Memo: CN(c1ncnc2[nH]c3cc(F)ccc3c12)C1CCCS(=O)(=O)C1 (centres unmarked) , reported 1-BDC (PanDDA): 0.06

Memo: Cn1ccn2c(CCNC(=O)[C@H]3C[C@H]3C(=O)O)nnc2c1=O , reported 1-BDC (PanDDA): 0.3

Memo: [O-][n+]1cccc(Nc2ncnc3[nH]c4cc(F)ccc4c23)c1 , reported 1-BDC (PanDDA): 0.17

Memo: O=c1[nH]nc(C2CCCN(c3ncnc4[nH]c5cc(F)ccc5c34)C2)o1 (centres unmarked) , reported 1-BDC (PanDDA): 0.09

###

Kindly state 1-BDC for each of the entries shown.
target.system: SARS-CoV-2 NSP3 Mac1 (Severe acute respiratory syndrome coronavirus 2)
Type: binding
run.conditions: PanDDA event map; crystal soak, Compound_concentration 100 mM, Echo_dispense_volume 40 nl
Just the number, please.

Param item: O=C(O)Cc1ccc(CNC(=O)c2ccnc3ccsc23)cc1 ; param system: SARS-CoV-2 NSP3 Mac1 (Severe acute respiratory syndrome coronavirus 2); output 1-BDC: 0.12

Param item: O=C(O)CC1CC(CNC(=O)c2cncc3sccc23)C1 (stereo not drawn) ; param system: SARS-CoV-2 NSP3 Mac1 (Severe acute respiratory syndrome coronavirus 2); output 1-BDC: 0.24

Param item: O=C1OCCN1C1CCN(c2ncnc3[nH]c4cc(F)ccc4c23)C1 (stereo not drawn) ; param system: SARS-CoV-2 NSP3 Mac1 (Severe acute respiratory syndrome coronavirus 2); output 1-BDC: 0.06

Param item: CCC(=O)Nc1nc(C)c(S(=O)(=O)Nc2cccc(C#N)c2)s1 ; param system: SARS-CoV-2 NSP3 Mac1 (Severe acute respiratory syndrome coronavirus 2); output 1-BDC: 0.33

Param item: O=C(NS(=O)(=O)Cc1ccc(Br)c(F)c1)c1cnn2ccccc12 ; param system: SARS-CoV-2 NSP3 Mac1 (Severe acute respiratory syndrome coronavirus 2); output 1-BDC: 0.38

Param item: Fc1ccc2c(c1)[nH]c1ncnc(N3CCOC(c4nnn[nH]4)C3)c12 (stereo not drawn) ; param system: SARS-CoV-2 NSP3 Mac1 (Severe acute respiratory syndrome coronavirus 2); output 1-BDC: 0.25

Param item: O=C(O)c1ccc(F)c(CNC(=O)c2ccc3[nH]ccc3c2)c1 ; param system: SARS-CoV-2 NSP3 Mac1 (Severe acute respiratory syndrome coronavirus 2); output 1-BDC: 0.09

Param item: OCC1CN(c2ncnc3[nH]c4cc(F)ccc4c23)CC2(CCC2)O1 (stereo not drawn) ; param system: SARS-CoV-2 NSP3 Mac1 (Severe acute respiratory syndrome coronavirus 2); output 1-BDC: 0.07

Param item: O=C(O)[C@H]1CCCC[C@H]1Nc1ncnc2[nH]c3cc(F)ccc3c12 ; param system: SARS-CoV-2 NSP3 Mac1 (Severe acute respiratory syndrome coronavirus 2); output 1-BDC: 0.05
